biological target: recombinant guanylate cyclase reporter cell line (Rattus norvegicus, UniProt P19686+P20595); construct: expressed in transfected cells; experiment: B-2. Action on recombinant guanylate cyclase reporter cell line; assay type: cell-based; conditions: MEC = minimal effective concentration; in some cases mean values from individual determinations
measurementName: MEC (µM)

Check out these entries, answers already filled in.
{"compound": "Cc1cc(OCc2c(F)cccc2F)c2nc(C)c(C(=O)NCC(N)COC(C)C)n2c1 (racemic) [Example 206]", "MEC [µM]": 0.30}
{"compound": "CCC(C)(N)CNC(=O)c1c(C)nc2c(OCc3c(F)cccc3F)cc(C)cn12.Cl (single isomer, unassigned; enantiomer a) [Example 357]", "MEC [µM]": 0.03}
{"compound": "Cc1cc(OCc2c(F)cccc2F)c2nc(C)c(C(=O)NCC(C)(N)COc3ccc(F)c(F)c3)n2c1 (racemic) [Example 350]", "MEC [µM]": 1.00}
{"compound": "Cc1cc(OCc2c(F)cccc2F)c2nc(C)c(C(=O)NC3(C)CC3(C)N)n2c1 (racemic) [Example 320]", "MEC [µM]": 0.30}
{"compound": "Cc1nc2c(OCc3c(F)cccc3F)cccn2c1C(=O)NCCN(C(C)C)C(C)C [Example 88]", "MEC [µM]": 1.00}

(I) Cc1nc2c(OCc3c(F)cccc3F)cccn2c1C(=O)NC1CCNc2ccc(F)cc21 (single isomer, unassigned; ent-8) [Example 105]
(II) CC=CCC(N)CNC(=O)c1c(C)nc2c(OCc3c(F)cccc3F)cc(C)cn12 (racemic) [Example 406]
Task item: Which record shows the lower MEC: the first, I , or the second, II ? Write the label of whichever entry you select.
Reply: II
(II: 0.10 µM, I: 0.30 µM)

---

Target: recombinant guanylate cyclase reporter cell line (Rattus norvegicus, UniProt P19686+P20595)
Construct: expressed in transfected cells
Sequence (P20595 1-619): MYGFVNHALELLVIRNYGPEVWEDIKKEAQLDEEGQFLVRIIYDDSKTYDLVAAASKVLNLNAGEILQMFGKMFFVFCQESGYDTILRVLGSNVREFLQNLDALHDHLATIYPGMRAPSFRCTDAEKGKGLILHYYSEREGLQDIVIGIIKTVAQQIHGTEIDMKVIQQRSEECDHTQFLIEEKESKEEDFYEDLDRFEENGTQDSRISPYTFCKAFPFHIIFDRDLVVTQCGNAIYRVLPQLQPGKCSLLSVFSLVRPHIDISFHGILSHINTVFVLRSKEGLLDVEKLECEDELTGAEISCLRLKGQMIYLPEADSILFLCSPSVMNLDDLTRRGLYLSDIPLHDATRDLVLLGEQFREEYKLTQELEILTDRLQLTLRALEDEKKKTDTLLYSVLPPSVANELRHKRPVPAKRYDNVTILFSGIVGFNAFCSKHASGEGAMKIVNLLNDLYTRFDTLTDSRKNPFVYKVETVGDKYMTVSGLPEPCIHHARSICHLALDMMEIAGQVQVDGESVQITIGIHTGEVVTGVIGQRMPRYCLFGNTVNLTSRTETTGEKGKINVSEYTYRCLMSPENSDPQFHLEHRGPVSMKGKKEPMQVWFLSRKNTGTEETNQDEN
Sequence (P19686 1-690): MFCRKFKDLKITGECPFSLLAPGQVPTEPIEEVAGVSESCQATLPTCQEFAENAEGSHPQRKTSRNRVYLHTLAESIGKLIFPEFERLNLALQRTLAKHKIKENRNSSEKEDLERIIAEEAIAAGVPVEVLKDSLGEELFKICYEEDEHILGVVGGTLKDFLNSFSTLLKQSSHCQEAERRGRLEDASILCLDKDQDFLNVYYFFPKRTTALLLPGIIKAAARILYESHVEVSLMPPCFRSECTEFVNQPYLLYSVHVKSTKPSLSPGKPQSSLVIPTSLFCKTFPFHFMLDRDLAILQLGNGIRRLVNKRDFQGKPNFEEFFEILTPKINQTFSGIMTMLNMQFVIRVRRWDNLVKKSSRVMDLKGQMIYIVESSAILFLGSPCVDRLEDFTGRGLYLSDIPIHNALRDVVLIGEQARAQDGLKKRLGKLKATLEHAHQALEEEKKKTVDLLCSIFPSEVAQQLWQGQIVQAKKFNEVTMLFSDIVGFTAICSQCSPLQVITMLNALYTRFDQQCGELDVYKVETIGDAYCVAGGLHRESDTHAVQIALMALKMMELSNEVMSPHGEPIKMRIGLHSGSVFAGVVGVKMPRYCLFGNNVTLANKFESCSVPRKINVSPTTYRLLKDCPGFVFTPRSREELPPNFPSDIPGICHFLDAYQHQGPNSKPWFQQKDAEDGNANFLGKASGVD
Test: B-2. Action on recombinant guanylate cyclase reporter cell line
Format: cell-based
Conditions: MEC = minimal effective concentration; in some cases mean values from individual determinations
measurementName: MEC (µM)

Check out these entries, answers already filled in.
{"compound": "Cc1nc2c(OCc3c(F)cccc3F)cccn2c1C(=O)NC1CCNc2ccccc21 (single isomer, unassigned; ent-8) [Example 52]", "measurementName": "MEC", "quantitativeReadout": 0.03}
{"compound": "Cc1cc(OCc2c(F)cccc2F)c2nc(C)c(C(=O)NCCNC(C)(C)C)n2c1", "measurementName": "MEC", "quantitativeReadout": 0.30}
{"compound": "Cc1nc2c(OCc3c(F)cccc3F)cccn2c1C(=O)NCC(C)(N)CCOCc1ccccc1 (single isomer, unassigned; enantiomer b) [Example 267]", "measurementName": "MEC", "quantitativeReadout": 0.10}

(1) Cc1nc2c(OCc3c(F)cccc3F)cc(F)cn2c1C(=O)NCC(C)(C)N
(2) Cc1cc(OCc2c(F)cccc2F)c2nc(C)c(C(=O)NCC(N)c3csc4ccccc34)n2c1 (racemic)
Task item: Kindly identify which of 1 and 2 has the larger recorded MEC value. Write the label of whichever entry you select.
Reply: 2

(A) CC[C@](C)(N)CNC(=O)c1c(C)nc2c(OCc3c(F)cccc3F)cc(C)cn12 (single isomer, unassigned)
(B) Cc1nc2c(OCc3c(F)cccc3F)cccn2c1C(=O)NC(CN)COC(C)C (racemic) [Example 63]
Task item: Which record shows the lower MEC: the first, A , or the second, B ? Write the label of whichever entry you select.
Reply: A
(A: 0.04 µM, B: 0.30 µM)
